Reference for the values: patent US6221865A

TARGET ENTITY: protein farnesyltransferase (Rattus norvegicus, UniProt Q02293+Q04631)
Construct: The enzyme is purified according to Reiss, Y., et al., Cell, 62: 81-88 (1990), utilizing steps one through three; from tissue; host or cells: rat brain
Sequence (Q02293 whole entry, one chain of several): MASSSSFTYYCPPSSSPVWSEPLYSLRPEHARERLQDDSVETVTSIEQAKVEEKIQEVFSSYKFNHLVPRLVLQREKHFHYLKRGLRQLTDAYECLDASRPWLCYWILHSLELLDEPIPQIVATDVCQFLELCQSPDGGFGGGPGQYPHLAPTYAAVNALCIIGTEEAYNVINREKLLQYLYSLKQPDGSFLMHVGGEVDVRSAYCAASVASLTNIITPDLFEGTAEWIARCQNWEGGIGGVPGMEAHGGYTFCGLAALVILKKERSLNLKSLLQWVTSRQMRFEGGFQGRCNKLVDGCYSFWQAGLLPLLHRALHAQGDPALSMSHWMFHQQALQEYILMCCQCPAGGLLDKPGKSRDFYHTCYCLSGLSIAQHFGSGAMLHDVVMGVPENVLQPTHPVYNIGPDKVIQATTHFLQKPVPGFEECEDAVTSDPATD
PROTOCOL NOTES: Inhibition of farnesyltransferase (scintillation proximity assay, rat brain enzyme, biotin-K Ras B fragment substrate)
Format: biochemical
TEST CONTEXT: 1 × 10^-7 M (Table 3)
Decision: % inhibition of farnesyltransferase at 1 × 10^-7 M compared against 90%; not below it gives class 1, below it gives class 0.

[
  {
    "MOLECULE": "CSCC[C@H](NC(=O)c1ccc(COC(Cc2ccccc2)Cc2ccccc2)cc1-c1ccccc1C)C(=O)[O-].[Li+] [Example 522]",
    "LABEL VALUE": "class 1"
  },
  {
    "MOLECULE": "COc1ccccc1N(Cc1ccccc1)Cc1ccc(C(=O)N[C@@H](CCSC)C(=O)O)c(-c2ccccc2C)c1 [Example 839]",
    "LABEL VALUE": "class 0"
  },
  {
    "MOLECULE": "CSCC[C@H](NC(=O)c1ccc(CSCC2CCCCC2)cc1-c1ccccc1C)C(=O)[O-].[Li+] [Example 559]",
    "LABEL VALUE": "class 1"
  },
  {
    "MOLECULE": "CSCC[C@H](NC(=O)c1ccc(CSc2nc3ccccc3c(=O)[nH]2)cc1-c1ccccc1C)C(=O)O [Example 745]",
    "LABEL VALUE": "class 1"
  }
]

Moving on to the next molecule.
Does % inhibition of farnesyltransferase at 1 × 10^-7 M meet or surpass 90% for CSCC[C@H](NC(=O)c1ccc(CSc2ccc(F)cc2)cc1-c1ccccc1C)C(=O)O [Example 740] ?
class 1

###

TARGET ENTITY: protein farnesyltransferase (Rattus norvegicus, UniProt Q02293+Q04631)
Construct: The enzyme is purified according to Reiss, Y., et al., Cell, 62: 81-88 (1990), utilizing steps one through three; from tissue; host or cells: rat brain
PROTOCOL NOTES: Inhibition of farnesyltransferase (scintillation proximity assay, rat brain enzyme, biotin-K Ras B fragment substrate)
Type: biochemical
TEST CONTEXT: read-out: % inhibition of farnesyltransferase at 1 × 10^-8 M; 1 × 10^-8 M (Table 4)
Experimental: The ability of the compounds of the invention to inhibit protein farnesyltransferase or protein geranylgeranyltransferase can be measured according to the method of Moores, et al., J. Biol. Chem. 266: 14603 (1991) or the method of Vogt, et al., J. Biol. Chem. 270:660-664 (1995). […] In addition, in vitro inhibition of protein farnesyltransferase may be measured by the following procedure. […] The % inhibition of protein farnesyltransferase was determined for representative compounds of the invention.
Counter-ions that a name gives are not always drawn.
Decision: inhibition at 0.01 µM compared against 80%; not below it gives class 1, below it gives class 0.

Does inhibition at 0.01 µM meet or surpass 80% for CSCC[C@H](NC(=O)c1ccc(CON=C(Cc2ccccc2)Cc2ccccc2)cc1-c1ccccc1C)C(=O)O [Example 888, lithium salt] ?
class 1

###

TARGET ENTITY: protein farnesyltransferase (Rattus norvegicus, UniProt Q02293+Q04631)
Construct: The enzyme is purified according to Reiss, Y., et al., Cell, 62: 81-88 (1990), utilizing steps one through three; from tissue; host or cells: rat brain
PROTOCOL NOTES: Inhibition of farnesyltransferase (scintillation proximity assay, rat brain enzyme, biotin-K Ras B fragment substrate)
Assay type: biochemical
TEST CONTEXT: 1 × 10^-5 M (Table 1)
READOUT: % inhibition of farnesyltransferase at 1 × 10^-5 M (%)
The figure you give is taken to be in %; do not add the unit.

Here are 3 compounds together with their reported answers.
[
  {
    "COMPOUND": "CSCC[C@H](NC(=O)c1ccc(CNc2ccc(I)cc2)cc1-c1ccccc1)C(=O)O",
    "RECORDED VALUE": 71
  },
  {
    "COMPOUND": "CSCC[C@H](NC(=O)c1ccc(CNC(CO)Cc2ccccc2)cc1-c1ccccc1)C(=O)O (stereo partly shown)",
    "RECORDED VALUE": 56
  },
  {
    "COMPOUND": "CSCC[C@H](NC(=O)c1ccc(CNc2ccc(C(C)C)cc2)cc1-c1ccccc1)C(=O)O",
    "RECORDED VALUE": 74
  }
]

The compound CSCC[C@H](NC(=O)c1ccc(CNCc2cc(Cl)cc(Cl)c2)cc1-c1ccccc1)C(=O)O , when measured on protein farnesyltransferase (Rattus norvegicus, UniProt Q02293+Q04631), yielded % inhibition of farnesyltransferase at 1 × 10^-5 M of 69

###

Parameter inhibition at 1 µM: see the listing below.
TARGET ENTITY: protein farnesyltransferase (Rattus norvegicus, UniProt Q02293+Q04631)
Construct: The enzyme is purified according to Reiss, Y., et al., Cell, 62: 81-88 (1990), utilizing steps one through three; from tissue; host or cells: rat brain
PROTOCOL NOTES: Inhibition of farnesyltransferase (scintillation proximity assay, rat brain enzyme, biotin-K Ras B fragment substrate)
Assay type: biochemical
TEST CONTEXT: read-out: % inhibition of farnesyltransferase at 1 × 10^-6 M; 1 × 10^-6 M (Table 2)
The figure you give is taken to be in %; do not add the unit.

Here are 5 compounds together with their reported answers.
[
  {
    "COMPOUND": "CSCC[C@H](NC(=O)c1ccc(/C=C/c2ccccc2)cc1-c1ccccc1C)C(=O)O [Example 791]",
    "VALUE UNITS": "%",
    "inhibition at 1 µM": 53
  },
  {
    "COMPOUND": "CSCC[C@H](NC(=O)c1ccc(CN(C)C(CC2CCCCC2)C(=O)N2CCCCC2)cc1-c1ccccc1C)C(=O)O (stereo partly shown) [Example 301]",
    "VALUE UNITS": "%",
    "inhibition at 1 µM": 98
  },
  {
    "COMPOUND": "Cc1ccccc1-c1cc(CN(C2CC2)C2(Cc3ccccc3)CCC2)ccc1C(=O)N[C@@H](CCS(C)(=O)=O)C(=O)O [Example 333]",
    "VALUE UNITS": "%",
    "inhibition at 1 µM": 99
  },
  {
    "COMPOUND": "CSCC[C@H](NC(=O)c1ccc(CN(C2CC2)C2(Cc3ccccc3)CCC2)cc1-c1ccccc1C)C(=O)O [Example 329]",
    "VALUE UNITS": "%",
    "inhibition at 1 µM": 98
  },
  {
    "COMPOUND": "CCCCON(CCC1CCCCC1)Cc1ccc(C(=O)N[C@@H](CCS(C)(=O)=O)C(=O)O)c(-c2ccccc2C)c1 [Example 298]",
    "VALUE UNITS": "%",
    "inhibition at 1 µM": 43
  }
]

Looking up CSCC[C@H](NC(=O)c1ccc(CN(C(C)C)C(C)(C)CC2CCCCC2)cc1-c1ccccc1C)C(=O)O [Example 318] , I found its inhibition at 1 µM recorded as 98

Looking up CSCC[C@H](NC(=O)c1ccc(CNC(C)(C)Cc2ccccc2)cc1-c1ccccc1C)C(=O)O [Example 307] , I found its inhibition at 1 µM recorded as 82

###

TARGET ENTITY: protein farnesyltransferase (Rattus norvegicus, UniProt Q02293+Q04631)
Construct: The enzyme is purified according to Reiss, Y., et al., Cell, 62: 81-88 (1990), utilizing steps one through three; from tissue; host or cells: rat brain
PROTOCOL NOTES: Inhibition of farnesyltransferase (scintillation proximity assay, rat brain enzyme, biotin-K Ras B fragment substrate)
Assay type: biochemical
TEST CONTEXT: 1 × 10^-8 M (Table 4)
We'd kindly ask you to apply these % inhibition of farnesyltransferase at 1 × 10^-8 M classes: label 0 (below 80%), label 1 (80% to below 90%), label 2 (90% or more)

Which % inhibition of farnesyltransferase at 1 × 10^-8 M category applies to CSCC[C@H](NC(=O)c1ccc(CN(Cc2ccccc2)c2cncnc2)cc1-c1ccccc1C)C(=O)O here?
label 2

Which % inhibition of farnesyltransferase at 1 × 10^-8 M category applies to CSCC[C@H](NC(=O)c1ccc(CN(CCC2CCCCC2)Cc2cncs2)cc1-c1ccccc1C)C(=O)O here?
label 2

Which % inhibition of farnesyltransferase at 1 × 10^-8 M category applies to CSCC[C@H](NC(=O)c1ccc(COCc2cnc(-c3ccc(Cl)cc3)s2)cc1-c1ccccc1C)C(=O)[O-].[Li+] here?
label 1

Which % inhibition of farnesyltransferase at 1 × 10^-8 M category applies to CSCC[C@H](NC(=O)c1ccc(CN(Cc2ccccc2)c2cccc(C(C)=O)c2)cc1-c1ccccc1C)C(=O)O here?
label 1

Which % inhibition of farnesyltransferase at 1 × 10^-8 M category applies to CSCC[C@H](NC(=O)c1ccc(COCCCC23CC4CC(CC(C4)C2)C3)cc1-c1ccccc1C)C(=O)[O-].[Li+] here?
label 1

Which % inhibition of farnesyltransferase at 1 × 10^-8 M category applies to CSCC[C@H](NC(=O)c1ccc(CN(CCC2CCCCC2)Cc2ccccc2)cc1-c1ccccc1C)C(=O)[O-].[Li+] here?
label 0

Which % inhibition of farnesyltransferase at 1 × 10^-8 M category applies to CCCCC(CCCC)OCc1ccc(C(=O)N[C@@H](CCSC)C(=O)[O-])c(-c2ccccc2C)c1.[Li+] here?
label 0
